Recorded values, source paper PMC2766550.

system: hBRS-3 receptor (Homo sapiens, UniProt P32247)
Sequence (P32247 1-399): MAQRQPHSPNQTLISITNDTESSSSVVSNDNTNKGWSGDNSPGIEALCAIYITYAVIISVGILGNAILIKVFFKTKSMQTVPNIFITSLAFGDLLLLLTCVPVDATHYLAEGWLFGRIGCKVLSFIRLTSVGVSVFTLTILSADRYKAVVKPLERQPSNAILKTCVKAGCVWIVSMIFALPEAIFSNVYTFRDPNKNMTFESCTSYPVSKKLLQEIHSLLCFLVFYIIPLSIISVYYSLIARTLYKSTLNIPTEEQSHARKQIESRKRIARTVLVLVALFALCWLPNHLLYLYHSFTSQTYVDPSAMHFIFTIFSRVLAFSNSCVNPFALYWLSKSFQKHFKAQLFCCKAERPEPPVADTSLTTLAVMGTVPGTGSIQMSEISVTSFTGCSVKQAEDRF
experiment: Whole cell radioligand binding, hBRS-3 transfected Balb 3T3 cells
Square brackets hold non-standard residues; d marks the D form. Peptide text beside a SMILES is read from it. * marks the point of attachment. dPhe(F5) = N[C@H](Cc1c(F)c(F)c(F)c(F)c1F)C(=O)O; NHPr = CCCN*
metric: IC50

Q. Record lookup: for hBRS-3 receptor (Homo sapiens, UniProt P32247), what IC50 belongs to CCOC(=O)[C@H](CC(C)C)NC(=O)[C@H](Cc1c[nH]cn1)NC(=O)CNC(=O)[C@@H](NC(=O)[C@H](C)NC(=O)[C@H](Cc1c[nH]c2ccccc12)NC(=O)[C@H](CCC(N)=O)NC(=O)[C@H](N)Cc1ccccc1)C(C)C [Peptide 20, [D-Phe^6]Bn-(6-13)Ethyl ester] ?
A. 5.3 µM

Q. Record lookup: for hBRS-3 receptor (Homo sapiens, UniProt P32247), what IC50 belongs to CSCC[C@H](NC(=O)[C@H](CC(C)C)NC(=O)[C@@H](Cc1ccccc1)NC(=O)CNC(=O)[C@@H](NC(=O)[C@H](C)NC(=O)[C@H](Cc1c[nH]c2ccccc12)NC(=O)[C@H](CCC(N)=O)NC(=O)[C@H](CC(N)=O)NC(=O)CNC(=O)[C@H](Cc1ccc(O)cc1)NC(=O)[C@H](CCCNC(=N)N)NC(=O)[C@H](CCC(N)=O)NC(=O)[C@@H]1CCC(=O)N1)C(C)C)C(N)=O [Peptide 2, [Tyr^4, D-Phe^12]Bn] ?
A. > 10 µM

Q. Record lookup: for hBRS-3 receptor (Homo sapiens, UniProt P32247), what IC50 belongs to COC(=O)[C@H](CC(C)C)NC(=O)[C@H](Cc1c[nH]cn1)NC(=O)[C@@H](C)NC(=O)[C@@H](NC(=O)[C@H](C)NC(=O)[C@H](Cc1c[nH]c2ccccc12)NC(=O)[C@H](CCC(N)=O)NC(=O)[C@H](N)Cc1c(F)c(F)c(F)c(F)c1F)C(C)C [Peptide 18] (H-[dPhe(F5)]QWAV[dA]HL-OMe) ?
A. > 10 µM

Q. Record lookup: for hBRS-3 receptor (Homo sapiens, UniProt P32247), what IC50 belongs to CC(C)C[C@H](NC(=O)[C@H](Cc1cnc[nH]1)NC(=O)CNC(=O)[C@@H](NC(=O)[C@H](C)NC(=O)[C@H](Cc1c[nH]c2ccccc12)NC(=O)[C@H](CCC(N)=O)NC(=O)[C@H](N)Cc1ccccc1)C(C)C)C(N)=O [Peptide 8, [D-Phe^6]Bn(6-13)NH2] ?
A. > 10 µM

Q. Record lookup: for hBRS-3 receptor (Homo sapiens, UniProt P32247), what IC50 belongs to CCCNC(=O)[C@H](Cc1ccccc1)NC(=O)[C@H](Cc1c[nH]cn1)NC(=O)CNC(=O)[C@@H](NC(=O)[C@H](C)NC(=O)[C@H](Cc1c[nH]c2ccccc12)NC(=O)[C@H](CCC(N)=O)NC(=O)[C@H](N)Cc1ccccc1)[C@@H](C)O [Peptide 13, [D-Phe^6,Thr^10, Phe^13]Bn(6-13)PA] (H-[dF]QWATGHF-NHPr) ?
A. > 10 µM

Q. Record lookup: for hBRS-3 receptor (Homo sapiens, UniProt P32247), what IC50 belongs to CSCC[C@H](NC(=O)[C@@H](Cc1c[nH]c2ccccc12)NC(=O)[C@@H](Cc1c[nH]c2ccccc12)NC(=O)[C@H](Cc1ccccc1)NC(=O)[C@@H](Cc1c[nH]c2ccccc12)NC(=O)[C@H](CCC(N)=O)NC(=O)[C@H](CCC(N)=O)NC(=O)[C@H]1CCCN1)C(N)=O [Peptide 4, [D-Pro^4, D-Trp^7,9,10]SP-(4-11)] (H-[dP]QQ[dW]F[dW][dW]M-NH2) ?
A. 2.3 µM
